Please respond with reported EC50 for every item in the list.
- TARGET_SYSTEM: FPR1 (Homo sapiens, UniProt P21462)
- Sequence (P21462 1-350): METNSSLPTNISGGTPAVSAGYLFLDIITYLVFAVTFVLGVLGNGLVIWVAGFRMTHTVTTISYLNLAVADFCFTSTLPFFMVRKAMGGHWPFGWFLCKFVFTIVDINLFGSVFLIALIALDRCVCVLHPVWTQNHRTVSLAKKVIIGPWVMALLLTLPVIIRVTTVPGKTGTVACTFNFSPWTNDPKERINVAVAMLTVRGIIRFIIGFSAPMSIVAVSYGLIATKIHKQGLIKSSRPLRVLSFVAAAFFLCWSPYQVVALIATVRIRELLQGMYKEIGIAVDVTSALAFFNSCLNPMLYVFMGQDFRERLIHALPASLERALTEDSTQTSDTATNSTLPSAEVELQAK
- METHOD_SUMMARY: Change in calcium activity by peptide, FPR1 activation effect
- PARTICULARS: calcium activity (Fura-2), graded per Table 3, read-out: EC50 for [Ca^2+] FPR1
Peptide text beside a SMILES is read from it.

Tell me the measured EC50 of CSCC[C@H](NC(=O)[C@@H]1CCCN1)C(=O)N[C@@H](CCCNC(=N)N)C(=O)N[C@@H](Cc1ccc(O)cc1)C(=O)N[C@@H](CCCCN)C(=O)N[C@@H](Cc1ccc(O)cc1)C(=O)N[C@H](CCSC)C(N)=O [Peptide 46] (HELM PEPTIDE1{P.M.R.Y.K.Y.[dM].[am]}$$$$V2.0) , please.
> 10 µM

Tell me the measured EC50 of CSCC[C@H](NC(=O)[C@H](CCCNC(=N)N)NC(C)=O)C(=O)N[C@@H](CCCNC(=N)N)C(=O)N[C@@H](Cc1ccc(O)cc1)C(=O)N[C@@H](Cc1ccc(O)cc1)C(=O)N[C@H](C(=O)N[C@H](CCSC)C(N)=O)C(C)C [Peptide 98] (HELM PEPTIDE1{[ac].R.M.R.Y.Y.V.[dM].[am]}$$$$V2.0) , please.
1 to 10 µM
